System: PBMC
Conditions: 12.5 µM
MEASUREMENT_TYPE: Average (percentage cell inhibition), Mastoparan PBMC (%)
Return type: number; implicit unit %.

{"STRUCTURE_AS_SMILES": "CC[C@H](C)[C@H](N)C(=O)NCC(=O)N[C@@H](CC(C)C)C(=O)N[C@@H](CCCCN)C(=O)N[C@@H](C)C(=O)N[C@@H](CC(C)C)C(=O)N[C@@H](C)C(=O)N[C@@H](C)C(=O)N[C@@H](CC(C)C)C(=O)N[C@@H](C)C(=O)N[C@@H](CCCCN)C(=O)N[C@@H](CCCCN)C(=O)N[C@H](C(=O)N[C@@H](CC(C)C)C(N)=O)[C@@H](C)CC", "UNIT_SPEC": "%", "REPORTED": 15.6884}

Please examine the following record next.
### Prompt Suppose we examine the compound CC[C@H](C)[C@H](N)C(=O)N[C@@H](CC(N)=O)C(=O)N[C@@H](CC(C)C)C(=O)N[C@@H](CCCCN)C(=O)N[C@@H](C)C(=O)N[C@@H](CC(C)C)C(=O)N[C@@H](C)C(=O)N[C@@H](C)C(=O)N[C@@H](CC(C)C)C(=O)N[C@@H](C)C(=O)N[C@@H](CCCCN)C(=O)N[C@@H](CCC(=O)O)C(=O)N[C@H](C(=O)N[C@@H](CC(C)C)C(N)=O)[C@@H](C)CC ; what Average (percentage cell inhibition), Mastoparan PBMC value has been reported?
### Response 4.97

====

Tested on: MDA-MB-231 cells
Note to self: values exactly at 30% are Condition met. So Average (percentage cell inhibition), Dmastoparan MDA-MB231 12.5uM at or above 30% is Condition met, below is Condition not met.

### Prompt Dear colleague, could you confirm whether CC[C@H](C)[C@H](NC(=O)[C@H](CCCCN)NC(=O)[C@H](CCCCN)NC(=O)[C@H](C)NC(=O)[C@H](CC(C)C)NC(=O)[C@H](C)NC(=O)[C@H](C)NC(=O)[C@H](CC(C)C)NC(=O)[C@H](C)NC(=O)[C@H](CCCCN)NC(=O)[C@H](CC(C)C)NC(=O)[C@H](CC(N)=O)NC(=O)[C@@H](N)CC(N)=O)C(=O)N[C@@H](CC(C)C)C(N)=O [N1] has Average (percentage cell inhibition), Dmastoparan MDA-MB231 12.5uM at or above 30%?
### Response Condition not met

### Prompt I'd appreciate it if you could say whether CC[C@H](C)[C@H](N)C(=O)N[C@@H](CC(N)=O)C(=O)N[C@@H](CC(C)C)C(=O)N[C@@H](CCCCN)C(=O)N[C@@H](C)C(=O)N[C@@H](CC(C)C)C(=O)N[C@@H](C)C(=O)N[C@@H](C)C(=O)N[C@@H](CC(C)C)C(=O)N[C@H](C(=O)N[C@@H](CCCCN)C(=O)N[C@@H](CCCCN)C(=O)N[C@H](C(=O)N[C@@H](CC(C)C)C(N)=O)[C@@H](C)CC)[C@@H](C)O [T10] has Average (percentage cell inhibition), Dmastoparan MDA-MB231 12.5uM at least equal to 30%.
### Response Condition not met

### Prompt Item CC[C@H](C)[C@H](N)C(=O)N[C@@H](CC(N)=O)C(=O)N[C@@H](CC(C)C)C(=O)N[C@@H](CCCCN)C(=O)N[C@@H](C)C(=O)N[C@@H](CC(C)C)C(=O)N[C@@H](C)C(=O)N[C@@H](CCC(=O)O)C(=O)N[C@@H](CC(C)C)C(=O)N[C@@H](C)C(=O)N[C@@H](CCCCN)C(=O)N[C@@H](CCCCN)C(=O)N[C@H](C(=O)N[C@@H](CC(C)C)C(N)=O)[C@@H](C)CC [E8] with Average (percentage cell inhibition), Dmastoparan MDA-MB231 12.5uM of 30% or above?
### Response Condition met

### Prompt Item CC[C@H](C)[C@H](N)C(=O)N[C@@H](CC(N)=O)C(=O)N[C@@H](CC(C)C)C(=O)N[C@@H](CCCCN)C(=O)N[C@@H](CCCCN)C(=O)N[C@@H](CC(C)C)C(=O)N[C@@H](C)C(=O)N[C@@H](C)C(=O)N[C@@H](CC(C)C)C(=O)N[C@@H](C)C(=O)N[C@@H](CCCCN)C(=O)N[C@@H](CCCCN)C(=O)N[C@H](C(=O)N[C@@H](CC(C)C)C(N)=O)[C@@H](C)CC [K5] with Average (percentage cell inhibition), Dmastoparan MDA-MB231 12.5uM of 30% or above?
### Response Condition met

### Prompt Hi, just wondering whether CC[C@H](C)[C@H](N)C(=O)N[C@@H](CC(N)=O)C(=O)N[C@@H](CC(C)C)C(=O)N[C@@H](CCCCN)C(=O)N[C@@H](C)C(=O)N[C@@H](CC(C)C)C(=O)N[C@@H](C)C(=O)N[C@@H](C)C(=O)N[C@@H](CC(C)C)C(=O)N[C@@H](C)C(=O)N[C@@H](CCCCN)C(=O)N[C@@H](Cc1ccc(O)cc1)C(=O)N[C@H](C(=O)N[C@@H](CC(C)C)C(N)=O)[C@@H](C)CC [Y12] shows Average (percentage cell inhibition), Dmastoparan MDA-MB231 12.5uM of 30% or higher.
### Response Condition met

### Prompt Determine whether this compound has Average (percentage cell inhibition), Dmastoparan MDA-MB231 12.5uM no lower than 30%: CC[C@H](C)[C@H](N)C(=O)N[C@@H](CC(N)=O)C(=O)N[C@@H](CC(C)C)C(=O)N[C@@H](CCCCN)C(=O)N1CCC[C@H]1C(=O)N[C@@H](CC(C)C)C(=O)N[C@@H](C)C(=O)N[C@@H](C)C(=O)N[C@@H](CC(C)C)C(=O)N[C@@H](C)C(=O)N[C@@H](CCCCN)C(=O)N[C@@H](CCCCN)C(=O)N[C@H](C(=O)N[C@@H](CC(C)C)C(N)=O)[C@@H](C)CC [P5]
### Response Condition not met

### Prompt Reported Average (percentage cell inhibition), Dmastoparan MDA-MB231 12.5uM reaches at least 30% for CC[C@H](C)[C@H](N)C(=O)N[C@@H](CC(N)=O)C(=O)N[C@@H](CC(C)C)C(=O)N[C@@H](CCCCN)C(=O)N[C@@H](C)C(=O)N[C@@H](CC(C)C)C(=O)N[C@@H](C)C(=O)N[C@@H](C)C(=O)N[C@@H](CC(C)C)C(=O)N[C@@H](C)C(=O)N[C@@H](CCCNC(=N)N)C(=O)N[C@@H](CCCCN)C(=O)N[C@H](C(=O)N[C@@H](CC(C)C)C(N)=O)[C@@H](C)CC [R11] ?
### Response Condition met

### Prompt // inclusive: Average (percentage cell inhibition), Dmastoparan MDA-MB231 12.5uM at least 30%? input: CC[C@H](C)[C@H](N)C(=O)N[C@@H](CC(N)=O)C(=O)N[C@@H](CCC(N)=O)C(=O)N[C@@H](CCCCN)C(=O)N[C@@H](C)C(=O)N[C@@H](CC(C)C)C(=O)N[C@@H](C)C(=O)N[C@@H](C)C(=O)N[C@@H](CC(C)C)C(=O)N[C@@H](C)C(=O)N[C@@H](CCCCN)C(=O)N[C@@H](CCCCN)C(=O)N[C@H](C(=O)N[C@@H](CC(C)C)C(N)=O)[C@@H](C)CC [Q3]
### Response Condition not met
